B1: PhoQ; a variant is named by its letters at X, in order, P23837 (parent)
chain: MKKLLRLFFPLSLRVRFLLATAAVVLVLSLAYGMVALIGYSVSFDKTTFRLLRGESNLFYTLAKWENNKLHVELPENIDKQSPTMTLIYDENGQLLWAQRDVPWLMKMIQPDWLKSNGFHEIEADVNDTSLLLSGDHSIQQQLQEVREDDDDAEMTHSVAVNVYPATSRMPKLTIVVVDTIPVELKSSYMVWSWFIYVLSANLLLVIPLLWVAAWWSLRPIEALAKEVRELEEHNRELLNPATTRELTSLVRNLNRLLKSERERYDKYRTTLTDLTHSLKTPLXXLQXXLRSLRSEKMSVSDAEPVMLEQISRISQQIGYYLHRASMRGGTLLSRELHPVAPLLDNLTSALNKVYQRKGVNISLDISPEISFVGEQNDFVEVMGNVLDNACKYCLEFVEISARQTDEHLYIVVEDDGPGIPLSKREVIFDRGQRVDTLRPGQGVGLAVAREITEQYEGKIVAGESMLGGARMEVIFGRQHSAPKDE

Variants of: B1
protocol-summary: enrichment ratio after two sorts for PhoP signalling (ratio (wild type AVST 3.29)); higher = more functional
run-parameters: with PhoP (E. coli)
In all, about 140,000 sequences were measured (“enrichment ratio after two sorts for PhoP signalling”: median about 0, highest 2% from about 11 on). Only a selection was taken, and the highest values are over-represented in it overall.
readout-label: enrichment ratio

Below: 6 variants and their reported enrichment ratio.
{"mutation": "VRAW", "enrichment ratio": "≤ 0.25"}
{"mutation": "NGQA", "enrichment ratio": "≤ 0.25"}
{"mutation": "MKCF", "enrichment ratio": "≤ 0.25"}
{"mutation": "WQAM", "enrichment ratio": "≤ 0.25"}
{"mutation": "SKCV", "enrichment ratio": 12.3}
{"mutation": "AVFF", "enrichment ratio": "≤ 0.25"}

Find the recorded enrichment ratio belonging to `SMSM` and report it. 12.4

Find the recorded enrichment ratio belonging to `IKFE` and report it. ≤ 0.25

Find the recorded enrichment ratio belonging to `YTAM` and report it. ≤ 0.25

Find the recorded enrichment ratio belonging to `VPPG` and report it. ≤ 0.25

Find the recorded enrichment ratio belonging to `ASIM` and report it. 14.6

Find the recorded enrichment ratio belonging to `RQPM` and report it. ≤ 0.25

Find the recorded enrichment ratio belonging to `WFMA` and report it. ≤ 0.25

Find the recorded enrichment ratio belonging to `SCSF` and report it. 9.85

Find the recorded enrichment ratio belonging to `PRDV` and report it. ≤ 0.25

Find the recorded enrichment ratio belonging to `FCSM` and report it. 0.747

Find the recorded enrichment ratio belonging to `TMFD` and report it. ≤ 0.25

Find the recorded enrichment ratio belonging to `SDSM` and report it. 1.33

Find the recorded enrichment ratio belonging to `YTHQ` and report it. ≤ 0.25

Find the recorded enrichment ratio belonging to `SKCF` and report it. 13.8

Find the recorded enrichment ratio belonging to `SSSM` and report it. 14.8

Find the recorded enrichment ratio belonging to `KTCA` and report it. ≤ 0.25

Find the recorded enrichment ratio belonging to `AGDA` and report it. ≤ 0.25

Find the recorded enrichment ratio belonging to `SSGP` and report it. ≤ 0.25

Find the recorded enrichment ratio belonging to `STAM` and report it. 12.1

Find the recorded enrichment ratio belonging to `PGVE` and report it. ≤ 0.25

Find the recorded enrichment ratio belonging to `VNTC` and report it. ≤ 0.25
